Attribution: patent US20190187155A1

Test system: CHO cells expressing the hERG ion channel
Assay: Thallium influx assay of cells expressing the hERG potassium ion channel, loaded with thallium ion indicator
Type: cell-based
Conditions: dye concentration increased from 1 μM to 2 μM
value type: change of fold increase (fluorogenic response) with dye loading concentration

COc1ccc(NC(=O)c2ccc3c(c2)C(=O)OC32c3cc(F)c(OC(C)=O)cc3Oc3cc(OC(C)=O)c(F)cc32)cc1N(CC(=O)OCOC(C)=O)CC(=O)OCOC(C)=O    not affected
COc1cc(NC(=O)c2ccc3c(c2)C(=O)OC32c3cc(F)c(OC(C)=O)cc3Oc3cc(OC(C)=O)c(F)cc32)ccc1N(CC(=O)OCOC(C)=O)CC(=O)OCOC(C)=O    not affected

---

Quick reference: Fold Increase Over Baseline (fluorogenic response) of the listed items.
Test system: CHO cells expressing the hERG ion channel
Experiment: Thallium influx assay of cells expressing the hERG potassium ion channel, loaded with thallium ion indicator
Assay type: cell-based
Settings: dye loading concentration 1 μM; loaded 60 minutes; excitation 470-500 nm, emission 520-540 nm; final thallium 2 mM, potassium 10 mM
value type: Fold Increase Over Baseline (fluorogenic response)

COc1ccc(NC(=O)c2ccc3c(c2)C(=O)OC32c3cc(F)c(OC(C)=O)cc3Oc3cc(OC(C)=O)c(F)cc32)cc1N(CC(=O)OCOC(C)=O)CC(=O)OCOC(C)=O    2.0 fold
COc1cc(NC(=O)c2ccc3c(c2)C(=O)OC32c3ccc(OC(C)=O)cc3Oc3cc(OC(C)=O)ccc32)ccc1N(CC(=O)OCOC(C)=O)CC(=O)OCOC(C)=O    3.7 fold
COc1cc(NC(=O)c2ccc3c(c2)C2(OC3=O)c3cc(F)c(OC(C)=O)cc3Oc3cc(OC(C)=O)c(F)cc32)ccc1N(CC(=O)OCOC(C)=O)CC(=O)OCOC(C)=O    2.3 fold

---

Test system: CHO cells expressing the hERG ion channel
Test: Thallium influx assay of cells expressing the hERG potassium ion channel, loaded with thallium ion indicator
Type: cell-based
Details: dye loading concentration 2 μM; loaded 60 minutes; excitation 470-500 nm, emission 520-540 nm; final thallium 2 mM, potassium 10 mM
value type: Fold Increase Over Baseline (fluorogenic response) (fold)

COc1ccc(NC(=O)c2ccc3c(c2)C2(OC3=O)c3ccc(OC(C)=O)cc3Oc3cc(OC(C)=O)ccc32)cc1N(CC(=O)OCOC(C)=O)CC(=O)OCOC(C)=O    0.8
COc1cc(NC(=O)c2ccc3c(c2)C2(OC3=O)c3cc(F)c(OC(C)=O)cc3Oc3cc(OC(C)=O)c(F)cc32)ccc1N(CC(=O)OCOC(C)=O)CC(=O)OCOC(C)=O    1.5
COc1ccc(NC(=O)c2ccc3c(c2)C(=O)OC32c3ccc(OC(C)=O)cc3Oc3cc(OC(C)=O)ccc32)cc1N(CC(=O)OCOC(C)=O)CC(=O)OCOC(C)=O    1.3
